Recorded values, source patent US10239887B2.

# study-system: UniProt P08173
# test-method-notes: mAChR M4 cell-based functional assay (calcium flux), human M4
# test-parameters: Table 10; % ACh maximum at 30 μM
property-name: Emax (%)

// below: answered compounds
[[record]]
compound = "Cc1nnc2oc3c(NCc4cccc(C(C)(C)O)c4)ncnc3c2c1C"
study_system = "UniProt P08173"
property_name = "Emax"
measurement_units = "%"
observed_value = 63.4

[[record]]
compound = "Cc1c(Cl)cnc2sc3c(NCc4ccc(CN5CCOCC5)cc4)ncnc3c12"
study_system = "UniProt P08173"
property_name = "Emax"
measurement_units = "%"
observed_value = 69.8


1 = Cc1cc(C)c2c(n1)sc1c(N3CC4CC4C3)ncnc12 (centres unmarked)
2 = Cc1cc(C)c2c(n1)sc1c(NCc3ccc(OC(F)F)nc3)ncnc12
Query block: // compare: 1 vs 2 , metric Emax, want the smaller State your choice using its label.
Result block: 2

A = Cc1nnc2sc3c(NCc4ccc(C(C)(O)C(F)(F)F)cc4)ncnc3c2c1C (centres unmarked)
B = Cc1cc(C)c2c(n1)oc1c(N3CC4(COC4)C3)ncnc12
C = COc1nnc2sc3c(N4CCCC4)ncnc3c2c1C
Query block: Thanks in advance: please rank these 3 entries by Emax, highest to lowest. I would appreciate it if you listed the labels in the requested order.
Result block: C, A, B
(C: 117%, A: 73.8%, B: 37.7%)

I = Cc1nnc2sc3c(NCc4ccc(S(F)(F)(F)(F)F)cc4)ncnc3c2c1C
II = Cc1cnc(N2CC3(CC(Nc4ncnc5c4sc4nnc(C)c(C)c45)C3)C2)nc1
Query block: Name the one with the greater Emax value, either I or II as given. State your choice using its label.
Result block: I
(I: 67.3%, II: 31.6%)

###

# study-system: human mAChR M4 (Homo sapiens, UniProt P08173)
# Sequence (P08173 whole entry): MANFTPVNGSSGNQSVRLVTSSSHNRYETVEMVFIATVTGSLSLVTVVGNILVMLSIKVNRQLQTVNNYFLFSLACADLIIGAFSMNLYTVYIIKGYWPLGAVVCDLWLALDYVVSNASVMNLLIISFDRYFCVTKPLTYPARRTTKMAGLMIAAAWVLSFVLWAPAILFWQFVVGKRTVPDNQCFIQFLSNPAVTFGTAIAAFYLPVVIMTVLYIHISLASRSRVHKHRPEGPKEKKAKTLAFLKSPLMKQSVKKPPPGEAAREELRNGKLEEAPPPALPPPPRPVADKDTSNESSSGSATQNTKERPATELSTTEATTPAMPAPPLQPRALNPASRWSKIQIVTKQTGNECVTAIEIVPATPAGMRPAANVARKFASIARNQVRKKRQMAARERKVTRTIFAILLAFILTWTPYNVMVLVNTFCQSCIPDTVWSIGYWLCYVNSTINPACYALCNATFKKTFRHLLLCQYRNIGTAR
# test-method-notes: mAChR M4 cell-based functional assay (calcium flux), human M4
# test-parameters: Table 11; % ACh maximum at 30 μM
Structures can show the parent of a compound that is named as a salt.
property-name: Emax (%)

// below: answered compounds
[[record]]
compound = "Cc1nnc2sc3c(NCc4ccc(C(C)(C)CO)cc4)ncnc3c2c1C [Compound 375]"
property_name = "Emax"
observed_value = 87.2

[[record]]
compound = "[2H]C([2H])([2H])OC(C)(C)c1ccc(CNc2ncnc3c2sc2nnc(C)c(C)c23)cc1 [Compound 370]"
property_name = "Emax"
observed_value = 93.1

[[record]]
compound = "Cc1nnc2sc3c(NCc4ccc(C(=O)NC(C)C)c(Cl)c4)ncnc3c2c1C [Compound 318]"
property_name = "Emax"
observed_value = 81.7

[[record]]
compound = "CCn1nccc1-c1ccc(CNc2ncnc3c2sc2nnc(C)c(C)c23)cc1 [Compound 343]"
property_name = "Emax"
observed_value = 72.2

[[record]]
compound = "Cc1nnc2sc3c(NCc4ccc(C(C)(C)N)cc4)ncnc3c2c1C [Compound 371]"
property_name = "Emax"
observed_value = 93.6


a = COC(C)(C)c1ccc(CNc2ncnc3c2sc2nnc(C)c(C)c23)cc1 [Compound 367]
b = Cc1nnc2sc3c(N4CC[C@H](Oc5cnccn5)C4)ncnc3c2c1C [Compound 361, dihydrochloride]
c = Cc1nnc2sc3c(N4CC[C@H](Oc5ccccn5)C4)ncnc3c2c1C [Compound 359, dihydrochloride]
Query block: Thanks in advance: please rank these 3 entries by Emax, highest to lowest. I would appreciate it if you listed the labels in the requested order.
Result block: a, b, c
(a: 100%, b: 53.9%, c: 31.8%)

A = Cc1nnc2sc3c(NCc4ccc(C(=O)NC5CC(F)C5)c(Cl)c4)ncnc3c2c1C (stereo not drawn) [Compound 321]
B = CNC(=O)c1cc(CN(C)c2ncnc3c2sc2nnc(C)c(C)c23)ccc1F [Compound 333]
Query block: // compare: A vs B , metric Emax, want the smaller State your choice using its label.
Result block: B
(B: 39.1%, A: 80.6%)

A = Cc1cc(O[C@H]2CCN(c3ncnc4c3sc3nnc(C)c(C)c34)C2)ccn1 [Compound 330]
B = Cc1nnc2sc3c(N4CC(Oc5cnn(C)c5)C4)ncnc3c2c1C [Compound 357, dihydrochloride]
Query block: // compare: A vs B , metric Emax, want the smaller State your choice using its label.
Result block: B
(B: 41.3%, A: 74.4%)
